The reader will find pIC50 measurements below, all made with CSNK1A1 (Homo sapiens (Human), UniProt P48729).
Sequence (P48729 whole entry): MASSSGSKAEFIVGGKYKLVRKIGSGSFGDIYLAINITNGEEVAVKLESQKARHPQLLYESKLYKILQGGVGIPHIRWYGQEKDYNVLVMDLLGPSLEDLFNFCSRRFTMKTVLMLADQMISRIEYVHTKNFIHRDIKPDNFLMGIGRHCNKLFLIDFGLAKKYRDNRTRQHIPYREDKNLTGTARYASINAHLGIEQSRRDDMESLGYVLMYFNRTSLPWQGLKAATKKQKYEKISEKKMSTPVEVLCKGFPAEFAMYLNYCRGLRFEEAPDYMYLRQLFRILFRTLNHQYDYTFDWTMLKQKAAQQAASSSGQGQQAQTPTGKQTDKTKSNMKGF
pIC50: −log10 of the molar value.
readout.label: pIC50

>>> value_measured("CC(C(=O)Nc1cc(-c2[nH]c3c(CC4CC4)cn(C)c(=O)c3c2-c2ccccc2)ccn1)c1ccc(F)cc1 (racemic)")
8.28
>>> value_measured("CN1CCc2[nH]c(-c3ccnc(NC(=O)C(CC(F)F)c4ccc(F)cc4)c3)c(-c3ccc(F)cc3F)c2C1=O (single isomer, unassigned) [Example 68]")
8.39
>>> value_measured("O=C(Nc1cc(-c2[nH]c3ccn(C4CC4)c(=O)c3c2-c2ccccn2)ccn1)C(CC(F)F)c1ccc(F)cc1 (racemic)")
8.06
>>> value_measured("CC(C(=O)Nc1cc(-c2[nH]c3c(c2-c2ccccc2)C(=O)N(C)CC3)ccn1)c1ccncc1 (single isomer, unassigned) [Example 155]")
8.89
>>> value_measured("Cn1cc(CC(F)(F)F)c2[nH]c(-c3ccnc(NC(=O)C(CC(F)F)c4ccc(F)cc4)c3)c(-c3ccccn3)c2c1=O (racemic)")
7.85
>>> value_measured("CC(C(=O)Nc1cc(-c2[nH]c3c(c2-c2ccc(F)cc2)C(=O)NC(C)(C)C3)ccn1)c1ccc(F)cc1 (racemic) [Example 94]")
8.52
>>> value_measured("Cc1cn(C)c(=O)c2c(-c3ccc(F)cc3)c(-c3ccnc(NC(=O)C(CC(F)F)c4ccc(F)cc4)c3)[nH]c12 (single isomer, unassigned; (-)) [Example 35]")
7.18
>>> value_measured("CC(C(=O)Nc1cc(-c2[nH]c3ccn(C)c(=O)c3c2-c2ccc(F)cc2)ccn1)c1ccc(F)cc1 (racemic) [Example 100]")
8.23
>>> value_measured("CC(C(=O)Nc1cc(-c2[nH]c3c(c2-c2ccc(F)cc2F)C(=O)N(C)CC3)ccn1)c1ccc(F)cc1 (single isomer, unassigned) [Example 71]")
8.77
>>> value_measured("CC1(C)CNC(=O)c2c1[nH]c(-c1ccnc(NC(=O)C(CC(F)F)c3ccc(F)cc3)c1)c2-c1ccccc1 (single isomer, unassigned) [Example 44]")
7.96
>>> value_measured("CC1(C)Cc2[nH]c(-c3ccnc(NC(=O)Cc4ccc(F)cc4)c3)c(-c3ccc(F)cc3)c2C(=O)N1")
8.72
>>> value_measured("CC(C(=O)Nc1cc(-c2[nH]c3c(CC(F)(F)F)cn(C)c(=O)c3c2-c2ccc(F)cc2)ccn1)c1ccc(F)cc1 (single isomer, unassigned; (+)) [Example 24]")
8.35
